// data source = patent US10611760B2

# TESTED ON: hOX2R (Homo sapiens, UniProt O43614)
# Sequence (O43614 1-444): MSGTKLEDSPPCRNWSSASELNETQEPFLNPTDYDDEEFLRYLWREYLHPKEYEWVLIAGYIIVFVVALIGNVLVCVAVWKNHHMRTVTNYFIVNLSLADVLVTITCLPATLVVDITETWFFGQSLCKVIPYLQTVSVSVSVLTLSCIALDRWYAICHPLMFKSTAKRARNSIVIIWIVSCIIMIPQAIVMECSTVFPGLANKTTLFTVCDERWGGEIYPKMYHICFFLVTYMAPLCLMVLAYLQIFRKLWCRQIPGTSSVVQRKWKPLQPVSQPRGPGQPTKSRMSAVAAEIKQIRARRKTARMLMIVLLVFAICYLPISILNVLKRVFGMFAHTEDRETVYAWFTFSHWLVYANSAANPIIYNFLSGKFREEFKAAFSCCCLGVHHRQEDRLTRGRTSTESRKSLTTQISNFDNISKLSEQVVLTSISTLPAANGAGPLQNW
# PROCEDURE SUMMARY: Intracellular calcium measurements using stable-replicating cells, Method B (CHO cells, FLIPR Tetra), OX2
# Type: cell-based
# TEST CONDITIONS: orexin A at EC75, read-out: pIC50 OX2 (converted)
# Description: Intracellular Calcium Measurements Using Stable-replicating Cells: Human OX1 or human OX2 receptor expressing CHO cells are plated into 384 well black, clear bottom, CellBIND plates at a seeding density of 10,000 cells/75 μL growth media. The seeded plates are incubated at 37° C. in air supplemented with 5% CO2 overnight. […]
Where a name gives a salt, the structure may show the parent alone.
ENDPOINT LABEL: IC50

Cc1ccc(-n2nccn2)c(C(=O)N(C)[C@H](CNc2ncc(C(F)(F)F)cn2)C2CC2)n1 [Example 74]    > 10 µM
Cc1ccc(-n2nccn2)c(C(=O)N(C)[C@H](CNc2ncc3ccccc3n2)C(C)C)n1 [Example 68]    > 1 µM
CC[C@@H](CN(CCOC)c1ncc(C(F)(F)F)cn1)N(C)C(=O)c1nc(C)ccc1-n1nccn1 [Example 83]    > 1 µM

Proceeding to the next molecule to report its IC50.
hOX2R (Homo sapiens, UniProt O43614) assay, molecule CC[C@@H](CNc1ncc(C(F)(F)F)cn1)N(C)C(=O)c1nc(C)ccc1-n1cncn1 [Example 89, formic acid salt] , recorded IC50 = > 10 µM

====

# TESTED ON: hOX2R (Homo sapiens, UniProt O43614)
# Sequence (O43614 1-444): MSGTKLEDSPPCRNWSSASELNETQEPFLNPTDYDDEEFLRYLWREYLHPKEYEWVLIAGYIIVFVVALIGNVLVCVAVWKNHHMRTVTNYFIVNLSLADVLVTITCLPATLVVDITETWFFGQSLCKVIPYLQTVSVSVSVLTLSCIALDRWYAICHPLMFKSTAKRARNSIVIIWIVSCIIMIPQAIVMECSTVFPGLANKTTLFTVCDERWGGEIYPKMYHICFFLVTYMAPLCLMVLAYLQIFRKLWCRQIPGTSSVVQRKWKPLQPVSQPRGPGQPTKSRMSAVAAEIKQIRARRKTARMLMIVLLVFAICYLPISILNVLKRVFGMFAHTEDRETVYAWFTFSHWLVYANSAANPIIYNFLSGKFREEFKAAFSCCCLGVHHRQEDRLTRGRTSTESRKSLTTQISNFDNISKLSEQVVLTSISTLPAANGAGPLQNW
# PROCEDURE SUMMARY: Intracellular calcium measurements using division-arrested cells, OX2
# Assay type: cell-based
# TEST CONDITIONS: agonist orexin B at 2×EC50, * = single experiment, otherwise average of at least two, read-out: pIC50 OX2 (converted)
ENDPOINT LABEL: IC50 (nM)
Give bare numbers, in nM.

CC[C@@H](CNc1ccc(Cl)cn1)N(C)C(=O)c1cc(C)ccc1-n1nccn1    1000

Sure, the documented IC50 for Cc1nc(C(=O)N(C)[C@H](CNc2ccc(Cl)cn2)C(C)C)c(-c2ccccc2)s1 is 2000

====

# TESTED ON: hOX1R (Homo sapiens)
# PROCEDURE SUMMARY: Intracellular calcium measurements using stable-replicating cells, Method B (CHO cells, FLIPR Tetra), OX1
# Assay type: cell-based
# TEST CONDITIONS: orexin A at EC75, read-out: pIC50 OX1 (converted)
Exercise: state measured IC50 for each of the compounds provided.
One number for each entry, in nM.

CC[C@@H](CNc1ccc(Cl)cn1)N(C)C(=O)c1cc(Br)ccc1-n1nccn1    1.58

Please give IC50 for each item listed below.
1. CC[C@@H](CNc1ncc(C(F)(F)F)cn1)N(C)C(=O)c1cc(Cl)cc2cccnc12
2. CC[C@@H](CNc1ccc(C(F)(F)F)nn1)N(C)C(=O)c1cc(Cl)ccc1-n1nccn1
3. CC[C@@H](CNc1ccc(Cl)cn1)N(C)C(=O)c1cc(C(F)(F)F)cnc1-n1nccn1
4. CC[C@@H](CNc1ccc(Cl)cn1)N(C)C(=O)c1cc(OC(F)(F)F)ccc1-n1nccn1
5. CC[C@@H](CNc1ccc2ccccc2n1)N(C)C(=O)c1cc(Cl)ccc1-n1nccn1
6. CC[C@@H](CNc1ncc(C(F)(F)F)cn1)N(C)C(=O)c1c(F)cccc1-n1nccn1
7. CC[C@@H](CNc1ncc2ccccc2n1)N(CC)C(=O)c1nc(C)ccc1-n1nccn1

Response line:
10
20
3980
100
0.794
25.1
1.58

====

I'd be grateful if you could share measured IC50 for these entries.
# TESTED ON: hOX2R (Homo sapiens)
# PROCEDURE SUMMARY: Intracellular calcium measurements using division-arrested cells, OX2
# Assay type: cell-based
# TEST CONDITIONS: agonist orexin B at 2×EC50, * = single experiment, otherwise average of at least two, read-out: pIC50 OX2 (converted)

# batch size: 3; output IC50 per entry
1. CC[C@@H](CNc1ccc(Cl)cn1)N(C)C(=O)c1cc(C)ccc1N1CCOCC1 [Example 22]
2. CN(C(=O)c1ccccc1-c1ccccc1)[C@H](CNc1ccc(Cl)cn1)C(C)(C)C [Example 12]
3. CC[C@@H](CNc1ccc(Cl)cn1)NC(=O)c1cc(Cl)ccc1-n1nccn1 [Example 25]

Response line:
1: > 10 µM; 2: > 10 µM; 3: > 10 µM

====

For each of the compounds below, state its IC50.
# TESTED ON: hOX1R (Homo sapiens, UniProt O43613)
# PROCEDURE SUMMARY: Intracellular calcium measurements using division-arrested cells, OX1
# Format: cell-based
# TEST CONDITIONS: agonist orexin A at 2×EC50, * = single experiment, otherwise average of at least two, read-out: pIC50 OX1 (converted)
Number first, unit second.

Consider the worked cases shown below.
CC[C@@H](CNc1ccc(C(F)(F)F)nc1)N(C)C(=O)c1nc(C)ccc1-n1nccn1 [Example 55]    79.4 nM
CC[C@@H](CNc1ccc(C(F)(F)F)nn1)N(C)C(=O)c1cc(Cl)ccc1-n1nccn1 [Example 41]    200 nM
CC(C)[C@@H](CNc1ccc(Cl)cn1)NC(=O)c1ccccc1-c1ccccc1 [Example 4]    158 nM
CC[C@@H](CNc1ccc(Cl)cn1)NC(=O)c1cc(Cl)ccc1-n1nccn1 [Example 25]    631 nM

Hey, quick one: what's IC50 for each of these?
1. CC[C@@H](CNc1ncc(C(F)(F)F)cn1)N(C)C(=O)c1nc(C)ccc1-n1nccn1 [Example 46]
2. Cc1nc(-c2ccccc2)c(C(=O)N[C@H](CNc2ccc(Cl)cn2)C(C)C)s1 [Example 6]
3. CC(C)[C@@H](CNc1ccc(Cl)cn1)N(C)C(=O)c1ccccc1-n1nccn1 [Example 28]

Response line:
20 nM
501 nM
200 nM

====

# TESTED ON: hOX1R (Homo sapiens)
# Sequence (O43613 1-425): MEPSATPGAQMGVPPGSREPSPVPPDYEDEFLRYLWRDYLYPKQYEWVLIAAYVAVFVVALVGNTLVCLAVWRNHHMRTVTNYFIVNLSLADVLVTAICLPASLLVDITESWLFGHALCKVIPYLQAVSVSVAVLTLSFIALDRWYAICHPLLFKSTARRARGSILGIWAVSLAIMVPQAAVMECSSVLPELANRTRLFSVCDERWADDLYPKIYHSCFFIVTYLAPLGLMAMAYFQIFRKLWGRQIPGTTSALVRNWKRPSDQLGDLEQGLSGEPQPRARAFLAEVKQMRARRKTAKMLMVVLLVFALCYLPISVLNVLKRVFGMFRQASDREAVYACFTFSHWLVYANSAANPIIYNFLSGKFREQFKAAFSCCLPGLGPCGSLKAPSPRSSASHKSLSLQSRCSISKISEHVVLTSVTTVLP
# PROCEDURE SUMMARY: Intracellular calcium measurements using stable-replicating cells, Method B (CHO cells, FLIPR Tetra), OX1
# Assay type: cell-based
# TEST CONDITIONS: orexin A at EC75, read-out: pIC50 OX1 (converted)
ENDPOINT LABEL: IC50
Give me the value, and tack the unit on after it.

Worked cases, IC50 given:
Cc1ccc(-n2nccn2)c(C(=O)N(C)[C@H](CNc2cnc(C(F)(F)F)cn2)C(C)C)n1 [Example 67]    7.94 nM
Cc1ccc(-n2nccn2)c(C(=O)N(C)[C@H](CNc2ncc3ccccc3n2)C(C)C)n1 [Example 68]    15.8 nM
CC[C@@H](CNc1nc2ccccc2s1)N(C)C(=O)c1cc(Cl)ccc1-n1nccn1 [Example 44]    1.58 nM
CC[C@@H](CNc1cnc(C(F)(F)F)cn1)N(CC)C(=O)c1nc(C)ccc1-n1nccn1 [Example 70]    1.58 nM

Here is the next item to consider.
Short answer for CC[C@@H](CNc1nc2ccccc2s1)N(C)C(=O)c1nc(C)ccc1-n1nccn1 [Example 63] : IC50 was 1.58 nM
